Where do these numbers come from? They come from paper PMC2990348.

The compounds below have reported Cytotoxic effects to HeLa cells after 7 h for HeLa S3 cells.
readout kind: Cytotoxic effects to HeLa cells after 7 h

>  <compound>
Cc1ncnc2c1ncn2[C@@H]1O[C@H](CO)[C@@H](O)[C@H]1O [Compound 2, 6-methyl-9-β-D-ribofuranosylpurine, reference compound]

>  <experimental system>
HeLa S3 cells

>  <value observed>
pronounced effects

$$$$
>  <compound>
Nc1ncnc2c1ccn2[C@@H]1O[C@H](CO)[C@@H](O)[C@H]1O [Compound 3, tubercidin, reference compound]

>  <experimental system>
HeLa S3 cells

>  <value observed>
pronounced effects

$$$$
>  <compound>
Cc1ccnc2c1ncn2[C@@H]1O[C@H](CO)[C@@H](O)[C@H]1O

>  <experimental system>
HeLa S3 cells

>  <value observed>
little cytotoxicity

$$$$
>  <compound>
COC[C@H]1O[C@@H](n2ccc3c(C)ncnc32)[C@H](O)[C@@H]1O

>  <experimental system>
HeLa S3 cells

>  <value observed>
little cytotoxicity

$$$$
